Measurement notes: NCI Yeast Anticancer Drug Screen. Data for the rad50 strain (AID 155);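 further: 0% = growth of vehicle-only cultures of the same strain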
Condition set: S. cerevisiae rad50 strain growth inhibition; at 50.0 µM
The panel holds about 79,000 compounds, 15% with a hit somewhere; the sample as a whole holds those more often. Active and inactive are the calls of the source. No stated cut-off is given here; in the data, active means growth inhibition above about 70%; inactive means the rest.
Respond using exactly one of the listed classes: 1.0 (active), 0.0 (inactive)

These solved cases illustrate the format of a correct answer.
CCN(CC)CCNc1nc(N)c2nc(-c3ccccc3)c(-c3ccccc3)nc2n1 = 1.0
O=C1CCSC(=S)N1c1ccc(N=Nc2ccccc2)cc1 = 1.0
CCN(CC)CCCC(Nc1c2ccc(Cl)cc2nc2ccc(OC)cc12)c1cccs1 (stereo not given) = 1.0
CCC(CC)(C(=O)Nc1ccc2c(c1)c(=O)c1ccccc1n2C)C(=O)Nc1ccc2c(c1)c(=O)c1ccccc1n2C = 1.0
OC1(C2c3ccccc3-c3ccccc32)c2ccccc2-c2ccccc21 = 1.0
O=c1cccccc1[O-].O=c1cccccc1[O-].O=c1cccccc1[O-].[Sm+3] = 1.0
CN(C)c1nc(=Nc2ccc(N=c3nc(N(C)C)ss3)cc2)ss1 = 1.0
CN(C)CC(CN(C)C)C(=O)c1ccc(Oc2ccccc2)cc1 = 1.0

Please let me know the test result on file for S=C(N/N=C1\C=Cc2ccccc2C1)N/N=C1\C=Cc2ccccc2C1 .
0.0

// repeat for O=C(Nc1ccccc1)Oc1c(Cl)c(Cl)c(Cl)c(Cl)c1Cl and report
0.0

Origin of values: PubChem BioAssay (NCI)
